Origin of the recorded values: the supplement of paper PMC10065799

target.or.system: Grb2 SH2 (UniProt P62993)
Sequence (P62993 whole entry, looked up, the tested form may be a part): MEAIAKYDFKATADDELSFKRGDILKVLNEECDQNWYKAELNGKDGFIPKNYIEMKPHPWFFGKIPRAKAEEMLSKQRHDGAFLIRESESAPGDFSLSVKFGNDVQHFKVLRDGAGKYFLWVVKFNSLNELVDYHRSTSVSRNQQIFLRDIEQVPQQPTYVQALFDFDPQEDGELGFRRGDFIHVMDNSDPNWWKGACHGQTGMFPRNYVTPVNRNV
assay.name: SH2 binding enrichment of the phosphorylated peptide, bacterial display (enrichment ratio); higher = better substrate or ligand; peptides without Tyr show the background;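 note: peptide library displayed on the E. coli surface as eCPX fusions, selected cells deep-sequenced, score is each peptide's frequency after selection divided by its frequency in the input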
reported.metric: SH2 binding enrichment

LLKKMYLMLDN [STAT1_Y203] :: 1.14
PLDGEYFTLPI [TP53_Y327_Q331P] :: 0.717
LTFHMYADPNI [SOS1_Y618_F623I_YF] :: 0.811
AGREEYSAMRD [KRAS_Y64_Q61R] :: 0.98
GGDAVYTNGAI [RFX2_Y82] :: 0.995
PVFIKYLPEWT [PSEN1_Y240_L235P] :: 1.28
ADYYDYGRGLS [KHDRBS3_Y304_H306R] :: 0.698
KNKELYSDPFD [PDE10A_Y300_L303P] :: 0.623
RVQKRYIFDNV [RCN1_Y115] :: 0.468
TSPKSYPSQKH [CAP2_Y316] :: 0.823
PKGTGYIKTES [STAT1_Y701_L706S] :: 0.997
EHAGEYGAEAL [HBA1_Y25_A20E] :: 0.865
SVVVPYEPREV [TP53_Y220_P223R] :: 0.829
GHMYAYDWISI [BEST1_Y227_L224M] :: 1.6
YQEPVYSVAFS [TBL1X_Y509_H504Y] :: 0.781
QEALEYFMKQI [PIK3CA_Y1038_M1043I] :: 0.704
RDSQIYAVDYE [MRPS34_Y34_L33I] :: 0.824
NRLNDYIFSFD [RARS1_Y516] :: 1.15
EEETDYTPVWC [UROD_Y30_G25E] :: 0.997
GIVEDYRPPFF [ACVRL1_Y421_YF] :: 0.818
CPASVYTKRCS [CPT2_Y508_R503C] :: 0.982
DGDTRYSTFSE [TKTL1_Y318] :: 0.978
RPYRPYIIRGM [LRP5_Y1531] :: 0.759
FGMQLYQKFMH [GRB14_Y347_N349K_YF] :: 1.23
NQELIYEGRRL [TBK1_Y354] :: 0.735
AKNKDYMSIIR [GNE_Y197] :: 0.9
CTTILYNYMCN [TP53_Y234_H233L] :: 1.78
YEKFLYFLPAS [DYNC2H1_Y346_H341Y] :: 1.05
DPGVSYCTREE [PDHA1_Y301_R302C] :: 1.08
GGCQEYTGAPF [NAXD_Y85_YF] :: 0.817
VHHLVYHHHHH [CACNA1H_Y519] :: 1.28
SSNTEYLSASD [INSR_Y999_P997T] :: 0.689
GKFFQYDTWKQ [IGF2_Y116] :: 0.906
RRIHSYRSHLW [VHL_Y112_G114S] :: 0.574
HEKKAYAFCGT [RPS6KA3_Y226_S227A] :: 1.04
YSSLGYPLPEG [ZSWIM4_Y87_P89L] :: 0.986
RASSSYRETPS [SORBS1_Y79] :: 0.876
FVHDNYVIRRT [CPS1_Y1450] :: 0.655
PPAPRYHHSAV [LZTR1_Y119] :: 1.31
AEYGLYRAMVR [VSX2_Y222_G223R] :: 0.855
ARMTNYGLPRY [TSPAN12_Y138] :: 1
QGFDTYFGYLL [ARSB_Y165_R160Q] :: 0.596
FRDALYKSMVD [PHEX_Y250_F252S_YF] :: 0.795
QRPGLYDRPGA [HNRNPH2_Y210_P209L] :: 0.804
IATAIYSGDKI [UGGT2_Y823] :: 0.796
ALWFIYLHTRS [ENG_Y614_S615L_YF] :: 0.875
AAVLNYKAGRD [GRIN2A_Y737] :: 0.835
CRERPYGGGGG [FUS_Y526_R521C] :: 0.87
VLDSHYPEDEV [C1QBP_Y188_C186S] :: 1.06
SFHCSYSEIKD [DCLRE1C_Y322_S320C] :: 0.704
LVSCTYQLARR [FGFR2_Y608_G613R] :: 0.851
RAIGFYSATSK [FAM120A_Y328_YF] :: 0.989
LDYNEYFRYLN [HPRT1_Y198_D201Y] :: 2.06
SLTRLCVGENA [NLRP3_Y861_Y861C] :: 0.867
FRPPYYHRDCM [HGD_Y334_N337D] :: 1.08
INSLKYAFNIS [EIF2B5_Y583_YF] :: 0.944
SLALFYRNVYH [RBL1_Y792_K794N] :: 0.743
